molecular target: T1, SARS-CoV2 Spike ecto foldon Trimer expressed with a C-terminal myc-myc-hexahistidine (SARS-CoV-2, UniProt P0DTC2 14-1213); test: SPR Biacore, mAb captured by anti-hFc, 37C
T1 construct: extracellular domain
In this section, each of the binders is paired with its reported kon.
Reply with just the number (in M⁻¹ s⁻¹).

Form field: reported kon of mAb14255 (antibody, V domains shown) VH: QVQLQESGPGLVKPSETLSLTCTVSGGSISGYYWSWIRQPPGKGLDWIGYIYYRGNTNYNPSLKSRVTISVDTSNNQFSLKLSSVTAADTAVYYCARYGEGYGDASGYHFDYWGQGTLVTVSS VL: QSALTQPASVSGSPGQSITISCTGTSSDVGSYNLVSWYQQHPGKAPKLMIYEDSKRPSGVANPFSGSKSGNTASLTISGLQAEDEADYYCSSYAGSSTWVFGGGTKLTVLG 1.03e+06

Report kon for mAb14256 (antibody, V domains shown) VH: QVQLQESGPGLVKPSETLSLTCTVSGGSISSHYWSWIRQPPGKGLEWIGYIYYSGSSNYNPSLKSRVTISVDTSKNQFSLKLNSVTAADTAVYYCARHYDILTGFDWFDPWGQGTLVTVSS VL: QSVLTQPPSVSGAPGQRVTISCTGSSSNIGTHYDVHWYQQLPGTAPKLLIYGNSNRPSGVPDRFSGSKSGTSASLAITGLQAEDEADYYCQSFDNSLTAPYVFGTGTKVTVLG please. 796000

Look up kon: mAb14289 (antibody, V domains shown) VH: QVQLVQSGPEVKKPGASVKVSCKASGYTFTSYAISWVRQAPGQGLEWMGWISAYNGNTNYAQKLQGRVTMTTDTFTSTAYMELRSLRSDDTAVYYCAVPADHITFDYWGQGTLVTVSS VL: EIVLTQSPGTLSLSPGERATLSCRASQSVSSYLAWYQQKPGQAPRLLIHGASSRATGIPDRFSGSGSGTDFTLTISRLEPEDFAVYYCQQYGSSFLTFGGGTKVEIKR 911000
